- System: HT-29
- assay name: SRB colorimetric assay of cell growth and viability, HT-29
- Format: cell-based, human
- run parameters: 48 hours exposure
Where a SMILES comes first, the peptide text is derived from it. Bridges are numbered along the chain shown (N, C = ends). [ ]: non-standard residue; d: D form. The star is where a group is joined. d(aIle) = CC[C@H](C)[C@@H](N)C(=O)O; d(aThr) = C[C@@H](O)[C@@H](N)C(=O)O; Hexanoyl(5-Me) = CC(C)CCCC(=O)*; Myristoyl = CCCCCCCCCCCCCC(=O)*; Orn = NCCC[C@H](N)C(=O)O; Dhb = C/C=C(\N)C(=O)O
Field: TGI HT-29. Provide a value for each of the molecules that follow.
Please state the figure in Molar; there is no need to write the unit.

# get_value(readout= TGI HT-29, system= HT-29) for C/C=C1\NC(=O)[C@H](Cc2ccccc2)NC(=O)[C@@H](C(C)C)NC(=O)[C@@H]([C@@H](C)CC)NC(=O)[C@H](NC(=O)[C@H](NC(=O)[C@H](CCCN)NC(=O)[C@H]2CCCN2C(=O)[C@H](NC(=O)[C@H](CC(C)C)NC(=O)[C@@H](NC(=O)[C@H](NC(=O)CCCC(C)C)C(C)C)[C@@H](C)O)C(C)C)[C@@H](C)CC)[C@@H](C)OC(=O)[C@H](C(C)C)NC1=O [Compound 45, [Leu^11]-KF] ({Hexanoyl(5-Me)}-[dV]TL[dV][dP][Orn][d(aIle)][d(aThr)][d(aIle)][dV]F[Dhb]V; ester 8-C) 1.17E−06

Now give it for C/C=C1\NC(=O)[C@H](Cc2ccccc2)NC(=O)[C@@H](C(C)C)NC(=O)[C@@H]([C@@H](C)CC)NC(=O)[C@H](NC(=O)[C@H](NC(=O)[C@H](CCCN)NC(=O)[C@H]2CCCN2C(=O)[C@H](NC(=O)[C@@H](NC(=O)[C@@H](NC(=O)[C@H](NC(=O)CCCCC(C)(F)F)C(C)C)[C@@H](C)O)C(C)C)C(C)C)[C@@H](C)CC)[C@@H](C)OC(=O)[C@H](C(C)C)NC1=O [Compound 28, [6,6-dFHep^14]-KF] too. 1.54E−06

Continue with C/C=C1\NC(=O)[C@H](Cc2ccccc2)NC(=O)[C@@H](C(C)C)NC(=O)[C@@H]([C@@H](C)CC)NC(=O)[C@H](NC(=O)[C@H](NC(=O)[C@H](CCCN)NC(=O)[C@H]2CCCN2C(=O)[C@H](NC(=O)CCCCCCCCCCCCC)C(C)C)[C@@H](C)CC)[C@@H](C)OC(=O)[C@H](C(C)C)NC1=O [Compound 32] (Myristoyl-[dV][dP][Orn][d(aIle)][d(aThr)][d(aIle)][dV]F[Dhb]V; ester 5-C) 7.83E−06

Further, for C/C=C1\NC(=O)[C@H](Cc2ccccc2)NC(=O)[C@@H](C(C)C)NC(=O)[C@@H]([C@@H](C)CC)NC(=O)[C@H](NC(=O)[C@H](NC(=O)[C@H](CCCN)NC(=O)[C@H]2CCCN2C(=O)[C@H](NC(=O)[C@@H](NC(=O)[C@@H](NC(=O)[C@@H](Cc2ccccc2)NC(=O)CCCC(C)C)[C@@H](C)O)C(C)C)C(C)C)[C@@H](C)CC)[C@@H](C)OC(=O)[C@H](C(C)C)NC1=O [Compound 36, [D-Phe^13]-KF] ? 1.21E−06

* * *

- Test system: A-549
- assay name: SRB colorimetric assay of cell growth and viability, A-549
- Format: cell-based, human
- run parameters: A-549; 48 hours exposure; read-out: LC50 A-549
Where a SMILES comes first, the peptide text is derived from it. Bridges are numbered along the chain shown (N, C = ends). [ ]: non-standard residue; d: D form. The star is where a group is joined. d(aIle) = CC[C@H](C)[C@@H](N)C(=O)O; d(aThr) = C[C@@H](O)[C@@H](N)C(=O)O; hCha = N[C@@H](CCC1CCCCC1)C(=O)O; Hexanoyl(5-Me) = CC(C)CCCC(=O)*; Orn = NCCC[C@H](N)C(=O)O; Dhb = C/C=C(\N)C(=O)O
observed property: CC50 (µM)
I only need the number, in µM, no unit after it.

Recorded CC50 for C/C=C1\NC(=O)[C@H](Cc2ccccc2)NC(=O)[C@@H](C(C)C)NC(=O)[C@@H]([C@@H](C)CC)NC(=O)[C@H](NC(=O)[C@H](NC(=O)[C@H](CCCN)NC(=O)[C@H]2CCCN2C(=O)[C@H](NC(=O)[C@@H](NC(=O)[C@H](CC(C)C)NC(=O)[C@H](NC(=O)CCCC(C)C)C(C)C)C(C)C)C(C)C)[C@@H](C)CC)[C@@H](C)OC(=O)[C@H](C(C)C)NC1=O [Compound 113, [Leu^12]-KF] ({Hexanoyl(5-Me)}-[dV]LV[dV][dP][Orn][d(aIle)][d(aThr)][d(aIle)][dV]F[Dhb]V; ester 8-C) , please? 6.04

Follow-up item: C/C=C1\NC(=O)[C@H](Cc2ccccc2)NC(=O)[C@@H](C(C)C)NC(=O)[C@@H]([C@@H](C)CC)NC(=O)[C@H](NC(=O)[C@H](NC(=O)[C@H](CCCN)NC(=O)[C@H]2CCCN2C(=O)[C@H](NC(=O)[C@@H](NC(=O)[C@H](CCCN)NC(=O)[C@H](NC(=O)CCCC(C)C)C(C)C)C(C)C)C(C)C)[C@@H](C)CC)[C@@H](C)OC(=O)[C@H](C(C)C)NC1=O [Compound 116, [Orn^12]-KF] ({Hexanoyl(5-Me)}-[dV][Orn]V[dV][dP][Orn][d(aIle)][d(aThr)][d(aIle)][dV]F[Dhb]V; ester 8-C) 6.71

Then what about the molecule C/C=C1\NC(=O)[C@H](CCC2CCCCC2)NC(=O)[C@@H](C(C)C)NC(=O)[C@@H]([C@@H](C)CC)NC(=O)[C@H](NC(=O)[C@H](NC(=O)[C@H](CCCN)NC(=O)[C@H]2CCCN2C(=O)[C@H](NC(=O)[C@@H](NC(=O)[C@@H](NC(=O)[C@H](NC(=O)CCCC(C)C)C(C)C)[C@@H](C)O)C(C)C)C(C)C)[C@@H](C)CC)[C@@H](C)OC(=O)[C@H](C(C)C)NC1=O [Compound 63] ({Hexanoyl(5-Me)}-[dV]TV[dV][dP][Orn][d(aIle)][d(aThr)][d(aIle)][dV][hCha][Dhb]V; ester 8-C) ? 3.48

Do the same for C/C=C1\NC(=O)[C@H](Cc2ccccc2)NC(=O)[C@@H](C(C)C)NC(=O)[C@@H]([C@@H](C)CC)NC(=O)[C@H](NC(=O)[C@H](NC(=O)[C@H](CCCN)NC(=O)[C@H]2CCCN2C(=O)[C@H](NC(=O)[C@@H](NC(=O)[C@H](Cc2ccccc2)NC(=O)[C@H](NC(=O)CCCC(C)C)C(C)C)C(C)C)C(C)C)[C@@H](C)CC)[C@@H](C)OC(=O)[C@H](C(C)C)NC1=O [Compound 114, [Phe^12]-KF] ({Hexanoyl(5-Me)}-[dV]FV[dV][dP][Orn][d(aIle)][d(aThr)][d(aIle)][dV]F[Dhb]V; ester 8-C) please 1.52

* * *

For each entry below, report its TGI K-562 value.
- Test system: K-562
- assay name: SRB colorimetric assay of cell growth and viability, K-562
- Format: cell-based, human
- run parameters: K-562; 48 hours exposure
All answers are understood in Molar, so give the number only.

I would be grateful if you could share the reported TGI K-562 for C/C=C1\NC(=O)[C@H](Cc2ccccc2)NC(=O)[C@@H](C(C)C)NC(=O)[C@@H]([C@@H](C)CC)NC(=O)[C@H](NC(=O)[C@H](NC(=O)[C@H](CCCN)NC(=O)[C@@H]2CC[C@H](c3ccccc3)N2C(=O)[C@H](NC(=O)[C@@H](NC(=O)[C@@H](NC(=O)[C@H](NC(=O)CC[C@@H](C)CC)C(C)C)[C@@H](C)O)C(C)C)C(C)C)[C@@H](C)CC)[C@@H](C)OC(=O)[C@H](C(C)C)NC1=O [Compound 62, [(5R)-Ph-Pro^9, (4S)-MeHex^14]-KF] . 6.43E−06

Also need [2H]C([2H])([2H])C([2H])(C([2H])([2H])[2H])[C@]([2H])(NC(=O)[C@@H](NC(=O)[C@H](NC(=O)CCCC(C)C)C(C)C)[C@@H](C)O)C(=O)N[C@@H](C(=O)N1CCC[C@@H]1C(=O)N[C@@H](CCCN)C(=O)N[C@@H](C(=O)N[C@H]1C(=O)N[C@H]([C@@H](C)CC)C(=O)N[C@H](C(C)C)C(=O)N[C@@H](Cc2ccccc2)C(=O)N/C(=C\C)C(=O)N[C@@H](C(C)C)C(=O)O[C@@H]1C)[C@@H](C)CC)C(C)C [Compound 100, [L-Val-d8^11]-KF] , thanks. 1.88E−06
